# Study Target: Mitogen-activated protein kinase kinase kinase kinase 1 (Homo sapiens, UniProt Q92918)
# Sequence (Q92918 whole entry): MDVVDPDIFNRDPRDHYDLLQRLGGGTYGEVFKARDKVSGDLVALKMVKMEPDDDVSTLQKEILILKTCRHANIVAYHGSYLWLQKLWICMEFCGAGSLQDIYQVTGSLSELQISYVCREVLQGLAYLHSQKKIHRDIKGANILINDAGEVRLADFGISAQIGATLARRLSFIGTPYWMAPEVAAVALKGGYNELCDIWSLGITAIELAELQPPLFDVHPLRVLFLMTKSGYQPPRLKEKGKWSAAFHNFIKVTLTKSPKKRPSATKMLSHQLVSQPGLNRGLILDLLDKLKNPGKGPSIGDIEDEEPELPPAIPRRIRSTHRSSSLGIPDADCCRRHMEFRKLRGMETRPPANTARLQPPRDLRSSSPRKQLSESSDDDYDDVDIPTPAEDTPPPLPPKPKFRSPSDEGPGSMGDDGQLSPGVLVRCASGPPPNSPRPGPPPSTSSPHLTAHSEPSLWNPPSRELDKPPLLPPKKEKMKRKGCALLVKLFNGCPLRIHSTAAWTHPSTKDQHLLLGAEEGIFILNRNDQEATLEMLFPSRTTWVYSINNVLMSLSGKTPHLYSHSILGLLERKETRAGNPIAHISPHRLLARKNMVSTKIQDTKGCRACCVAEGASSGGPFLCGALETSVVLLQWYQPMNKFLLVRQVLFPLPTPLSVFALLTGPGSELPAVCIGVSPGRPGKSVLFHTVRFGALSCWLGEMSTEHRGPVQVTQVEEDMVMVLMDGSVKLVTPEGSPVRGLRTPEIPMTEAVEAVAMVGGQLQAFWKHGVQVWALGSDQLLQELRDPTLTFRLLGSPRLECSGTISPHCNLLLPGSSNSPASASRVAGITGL
# Method Notes: HPK1 Kinase Assay (Biochemical Assay)
pIC50: −log10 of the molar value.
Observable: pIC50

1) Cc1c(N2CCc3cnc(Nc4cc5n(n4)CC(=O)N(C(C)C)CC5)nc3C2)cnc2c1NCCO2 [US20240025922, Example 89] :: < 6.00
2) Cc1cc(Nc2cc3c(cn2)CCN(c2cnc4c(c2Cl)NCCO4)C3)nn1CC(=O)N(C)C [US20240025922, Example 131] :: < 6.00
3) COc1cccc(F)c1N1CCc2cnc(Nc3cnc4c(c3)CN(C)CC4)nc2C1 [US20240025922, Example 120] :: > 7.00

Values compiled from BindingDB's records for patent US20240025922.
